Hey, just so you know, these numbers are from paper PMC12226970.

- tgt: bCA-II (Bos taurus)
- Sequence (P00921 2-260): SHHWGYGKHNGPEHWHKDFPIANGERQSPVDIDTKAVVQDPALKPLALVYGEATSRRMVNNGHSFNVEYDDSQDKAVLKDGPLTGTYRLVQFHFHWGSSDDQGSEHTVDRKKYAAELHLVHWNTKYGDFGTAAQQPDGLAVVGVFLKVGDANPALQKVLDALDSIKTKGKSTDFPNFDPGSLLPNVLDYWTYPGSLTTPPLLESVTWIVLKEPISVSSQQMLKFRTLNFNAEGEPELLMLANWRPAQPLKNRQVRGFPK
- measurement description: NPA (4-nitrophenyl acetate) hydrolysis assay with isolated bCA-II after […] nm photodeprotection of PCEM
test readout: IC50
Provide a numeric answer, followed by its unit.

The compound NS(=O)(=O)c1nc2ccc(OCCC[n+]3ccccc3)cc2s1 [dPCEM] showed IC50 equal to 2900 nM
